Origin of values: patent US20230219965A1

experiment.summary: Liver microsomal metabolic stability, human liver microsomes (HLM)
test.parameters: human, liver microsomes
half-life at 1 μM values, listed per item

Some solved cases for reference:
compound | half-life at 1 μM
CCn1cc(C(F)(F)F)nc1-c1ccc(CN2CCCn3nc(-c4c(Cl)cnn4C(C)C)cc32)cc1F | < 25 min
CCn1cc(C(F)(F)F)nc1-c1ccc(CN2C(=O)CCn3nc(-c4c(Cl)cnn4[C@H](C)COC)cc32)cc1F | < 25 min
COc1cccnc1-c1ccc(CN2C(=O)CCn3nc(-c4c(Cl)cnn4C(C)C)cc32)cc1 | < 25 min
CCn1cc(C(F)(F)F)nc1-c1ccc(CN2C(=O)C(C)Cn3nc(-c4c(OC)ncnc4C4CC4)nc32)cc1F (stereo not drawn) | > 25 min
CCn1cc(C(F)(F)F)nc1-c1ccc(CC2c3cc(-c4c(Cl)cnn4C(C)C)nn3CCN2C)cc1 (stereo not drawn) | < 25 min
COc1ncnc(C2CC2)c1-c1cc2n(n1)CCC(=O)N2Cc1ccc(-c2nc(C(F)(F)F)cn2C)cc1 | > 25 min
CCn1cc(C(F)(F)F)nc1-c1ccc(CN2C(=O)CCn3nc(-c4c(OC(F)F)ncnc4C4CC4)nc32)cc1 | > 25 min
COc1ncnc(C2CC2)c1-c1nc2n(n1)CCC(=O)N2[C@@H](C)c1ccc(-c2nc(C(F)(F)F)c(Br)n2C)cc1 | < 25 min

Please find the next compound below.
Would you mind telling me what half-life at 1 μM value was observed for `CC(C)n1cc(C(F)(F)F)nc1-c1ccc(CN2C(=O)CCn3nc(-c4c(Cl)cnn4C(C)C)cc32)cc1F` ?
> 25 min

* * *

measured.on: USP1/UAF1 enzyme (Homo sapiens, UniProt O94782)
Sequence (O94782 whole entry): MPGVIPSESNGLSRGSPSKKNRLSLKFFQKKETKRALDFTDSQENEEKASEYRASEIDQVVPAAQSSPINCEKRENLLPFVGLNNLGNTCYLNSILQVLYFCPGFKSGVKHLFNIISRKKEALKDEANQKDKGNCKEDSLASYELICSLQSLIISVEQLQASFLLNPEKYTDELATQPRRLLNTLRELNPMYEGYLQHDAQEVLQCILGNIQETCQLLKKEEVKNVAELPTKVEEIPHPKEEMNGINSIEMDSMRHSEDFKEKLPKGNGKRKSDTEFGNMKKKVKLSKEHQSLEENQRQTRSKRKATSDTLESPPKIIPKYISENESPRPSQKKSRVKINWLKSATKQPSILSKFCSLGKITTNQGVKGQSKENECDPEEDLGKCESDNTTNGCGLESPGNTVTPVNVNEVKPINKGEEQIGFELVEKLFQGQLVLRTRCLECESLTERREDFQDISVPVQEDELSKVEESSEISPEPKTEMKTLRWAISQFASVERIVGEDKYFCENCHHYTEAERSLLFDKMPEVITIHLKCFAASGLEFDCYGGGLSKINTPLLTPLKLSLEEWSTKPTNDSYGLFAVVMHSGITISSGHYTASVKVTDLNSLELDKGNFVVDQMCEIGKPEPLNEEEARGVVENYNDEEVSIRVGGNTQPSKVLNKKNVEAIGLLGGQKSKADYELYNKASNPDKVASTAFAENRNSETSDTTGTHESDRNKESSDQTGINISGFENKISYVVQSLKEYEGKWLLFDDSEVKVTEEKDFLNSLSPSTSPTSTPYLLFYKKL
Sequence (Q8TAF3 whole entry partner): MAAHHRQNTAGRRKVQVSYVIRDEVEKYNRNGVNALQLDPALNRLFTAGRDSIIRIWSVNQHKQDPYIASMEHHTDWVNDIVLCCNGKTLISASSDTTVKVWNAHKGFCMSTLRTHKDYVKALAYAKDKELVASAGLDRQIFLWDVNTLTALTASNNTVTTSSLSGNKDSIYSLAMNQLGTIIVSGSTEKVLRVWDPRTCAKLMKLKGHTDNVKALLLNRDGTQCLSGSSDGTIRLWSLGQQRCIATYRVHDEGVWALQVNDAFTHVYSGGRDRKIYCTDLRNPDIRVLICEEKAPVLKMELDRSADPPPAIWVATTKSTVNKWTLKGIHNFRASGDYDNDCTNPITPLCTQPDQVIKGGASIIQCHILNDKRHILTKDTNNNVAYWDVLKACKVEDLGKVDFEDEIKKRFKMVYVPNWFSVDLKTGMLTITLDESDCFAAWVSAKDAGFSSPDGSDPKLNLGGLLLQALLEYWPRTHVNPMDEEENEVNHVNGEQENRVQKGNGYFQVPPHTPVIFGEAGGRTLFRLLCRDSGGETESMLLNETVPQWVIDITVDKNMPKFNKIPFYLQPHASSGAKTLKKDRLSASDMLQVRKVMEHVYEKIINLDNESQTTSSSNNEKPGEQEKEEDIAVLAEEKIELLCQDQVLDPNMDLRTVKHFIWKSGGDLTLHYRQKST
experiment.summary: USP1/UAF1 deubiquitination assay (ubiquitin-rhodamine 110 substrate)
test.parameters: read-out: USP1 IC50 (Ub-Rho)
recorded.metric: IC50

Would you mind telling me what IC50 value was observed for CC(C)n1cnc(-c2ccc(CN3C(=O)CCn4nc(-c5c(Cl)cnn5C(C)C)cc43)cc2Cl)c1 [Example 315] ?
> 500 nM

* * *

experiment.summary: ADME solubility determination in PBS at pH 2.0 and pH 7.4
Format: physicochemical
test.parameters: phosphate buffered saline, 25 °C, pH 7.4, aqueous buffer, thermodynamic from solid, PBS pH 7.4, 25° C., read-out: Solubility at pH 7.4
solubility at 24 h values, listed per item

compound | solubility at 24 h
CC(C)n1ncc(Cl)c1-c1cc2n(n1)CCC(=O)N2Cc1ccc(-c2nc(C(F)(F)F)cn2C)cc1 | < 10 µM

Would you mind telling me what solubility at 24 h value was observed for `Cc1cnn(C(C)C)c1-c1nc2n(n1)CCCN2Cc1ccc(-c2nc(C(F)(F)F)cn2C(C)C)cc1` ?
< 10 µM

Would you mind telling me what solubility at 24 h value was observed for `COc1cccc(C)c1-c1cc2n(n1)CCCN2Cc1ccc(-c2nc(C(F)(F)F)cn2C)cc1` ?
< 10 µM

Would you mind telling me what solubility at 24 h value was observed for CCn1cc(C(F)(F)F)nc1-c1ccc(CN2C(=O)C(NC)Cn3nc(-c4c(Cl)cnn4C(C)C)cc32)cc1 (stereo not drawn) ?
< 10 µM

Would you mind telling me what solubility at 24 h value was observed for `COc1ncnc(C2CC2)c1-c1nc2n(n1)CCC(=O)N2Cc1ccc(-c2nc(C(F)(F)F)cn2C(C)C)c(F)c1OC` ?
≥ 10 µM

Would you mind telling me what solubility at 24 h value was observed for CCn1cc(C(F)(F)F)nc1-c1ccc(OC2CCCCn3nc(-c4c(Cl)cnn4C(C)C)cc32)cc1 (stereo not drawn) ?
< 10 µM

Would you mind telling me what solubility at 24 h value was observed for `COc1ccnc(C(C)C)c1-c1cc2n(n1)CCC(=O)N2Cc1ccc(-c2nc(C(F)(F)F)cn2C)cc1` ?
≥ 10 µM

Would you mind telling me what solubility at 24 h value was observed for `COc1ncnc(C)c1-c1cc2n(n1)CCCN2Cc1ccc(-c2nc(C(F)(F)F)cn2C)cc1` ?
≥ 10 µM

Would you mind telling me what solubility at 24 h value was observed for `Cc1cnn(C(C)C)c1-c1cc2n(n1)CCCN2Cc1ccc(-c2nc(C(F)(F)F)cn2C(C)C)cc1` ?
< 10 µM
